target: UniProtKB P09874; experiment: PARP1 biochemical DELFIA assay (auto-PARylation); conditions: Table 1A
Sequence (P09874 whole entry): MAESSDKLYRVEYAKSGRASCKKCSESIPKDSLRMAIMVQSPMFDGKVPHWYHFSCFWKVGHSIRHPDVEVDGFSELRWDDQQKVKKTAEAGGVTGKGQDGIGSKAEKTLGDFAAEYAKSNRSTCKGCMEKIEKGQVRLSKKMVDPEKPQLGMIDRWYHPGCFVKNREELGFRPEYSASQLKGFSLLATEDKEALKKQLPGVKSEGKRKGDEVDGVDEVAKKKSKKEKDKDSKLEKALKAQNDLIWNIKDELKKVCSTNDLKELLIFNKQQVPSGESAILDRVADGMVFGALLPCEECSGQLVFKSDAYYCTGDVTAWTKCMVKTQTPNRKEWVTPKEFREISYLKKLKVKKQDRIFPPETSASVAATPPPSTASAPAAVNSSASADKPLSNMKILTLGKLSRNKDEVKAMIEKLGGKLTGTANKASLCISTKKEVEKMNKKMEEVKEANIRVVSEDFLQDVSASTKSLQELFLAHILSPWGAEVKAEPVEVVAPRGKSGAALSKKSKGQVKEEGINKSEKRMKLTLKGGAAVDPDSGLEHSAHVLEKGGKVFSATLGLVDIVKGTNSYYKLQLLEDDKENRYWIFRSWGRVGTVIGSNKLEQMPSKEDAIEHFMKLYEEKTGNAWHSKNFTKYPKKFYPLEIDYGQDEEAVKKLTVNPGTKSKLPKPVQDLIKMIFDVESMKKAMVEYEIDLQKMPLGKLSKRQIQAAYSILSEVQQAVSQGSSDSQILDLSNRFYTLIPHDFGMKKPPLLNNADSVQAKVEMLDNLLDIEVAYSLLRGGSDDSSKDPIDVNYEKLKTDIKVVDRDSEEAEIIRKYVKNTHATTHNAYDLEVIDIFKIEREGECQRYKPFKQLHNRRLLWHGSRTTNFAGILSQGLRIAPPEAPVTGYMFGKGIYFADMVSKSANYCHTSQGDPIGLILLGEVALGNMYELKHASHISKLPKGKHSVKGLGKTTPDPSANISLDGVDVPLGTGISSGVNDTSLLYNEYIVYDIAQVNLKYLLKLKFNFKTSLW
Each entry below carries its recorded IC50.

Worked set:
• CCc1cc(C2CCCN2CC(=O)N2CCN(c3ncc(C(F)(F)F)cn3)CC2)n[nH]c1=O (single isomer, unassigned) [Compound 40b] = 1 to 10 µM
• CC(C)(C)c1cnc(N2CCN(C(=O)CN3CCCC3c3cc(C(F)(F)F)c(=O)[nH]n3)CC2)nc1 (single isomer, unassigned) [Compound 82b] = 1 to 10 µM
• N#Cc1ccc(N2CCN(C(=O)CN3CCCC3c3c[nH]c(=O)c(C(F)(F)F)c3)CC2)nc1 (single isomer, unassigned) [Compound 77a] = 1 to 10 µM
• N#Cc1cnc(N2CCN(C(=O)CN3CCCC3c3cc(C(F)(F)F)c(=O)[nH]n3)CC2)s1 (racemic) [Compound 44rac] = 0.01 to 0.1 µM
• O=C(CN1CCCC1c1n[nH]c(=O)c2ccccc12)N1CCN(c2ncc(C(F)(F)F)cn2)CC1 (single isomer, unassigned) [Compound 38a] = 0.1 to 1 µM

IN: # get_value(readout='IC50', item= O=C(CCN1CCC(c2n[nH]c(=O)c3ccccc23)CC1)N1CCN(c2ncc(C(F)(F)F)cn2)CC1 [Compound 49] )
OUT: 0.01 to 0.1 µM

IN: # get_value(readout='IC50', item= O=C(CN1CC(F)(F)C[C@H]1c1cc(C(F)(F)F)c(=O)[nH]n1)N1CCN(c2ncc(C(F)(F)F)cn2)CC1 [Compound 91b] )
OUT: 1 to 10 µM

IN: # get_value(readout='IC50', item= O=C(CN1CCCC1c1cc(C(F)(F)F)c(=O)[nH]n1)N1CCC(c2ncc(C(F)(F)F)cn2)CC1 (single isomer, unassigned) [Compound 70a] )
OUT: 1 to 10 µM
